Source of measurements: ChEMBL document CHEMBL4041499

# TESTED TARGET: Amine oxidase [flavin-containing] A (Homo sapiens)
# Sequence (P21397 whole entry): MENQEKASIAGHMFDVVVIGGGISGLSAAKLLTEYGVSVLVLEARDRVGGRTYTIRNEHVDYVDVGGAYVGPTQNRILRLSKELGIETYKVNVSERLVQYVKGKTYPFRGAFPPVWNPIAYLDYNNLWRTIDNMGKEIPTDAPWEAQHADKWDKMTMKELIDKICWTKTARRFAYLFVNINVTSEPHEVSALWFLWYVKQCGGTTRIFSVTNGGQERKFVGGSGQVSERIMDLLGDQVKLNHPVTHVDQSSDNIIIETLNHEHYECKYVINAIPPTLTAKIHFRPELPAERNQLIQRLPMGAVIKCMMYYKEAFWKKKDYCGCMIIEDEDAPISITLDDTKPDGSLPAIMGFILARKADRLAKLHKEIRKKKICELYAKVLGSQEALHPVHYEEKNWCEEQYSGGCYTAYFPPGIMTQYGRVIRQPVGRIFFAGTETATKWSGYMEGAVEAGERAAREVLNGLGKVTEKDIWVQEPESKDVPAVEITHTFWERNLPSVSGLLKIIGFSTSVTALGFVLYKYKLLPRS
OUTCOME MEASURE: IC50

INSERT INTO results (mol_smiles, tested_target, reported_value) VALUES
  ('Cc1c(Cl)c(=O)oc2cc(OCCN3CCC(Cc4ccccc4)CC3)ccc12', 'Amine oxidase [flavin-containing] A (Homo sapiens)', '> 10 µM'),
  ('Cc1c(C#N)c(=O)oc2cc(OCc3ccccc3Br)ccc12', 'Amine oxidase [flavin-containing] A (Homo sapiens)', '> 10 µM'),
  ('O=c1ccc2ccc(OCCN3CCC(Cc4ccccc4)CC3)cc2o1', 'Amine oxidase [flavin-containing] A (Homo sapiens)', '> 10 µM'),
  ('Cc1cc(=O)oc2cc(OCc3ccc(Br)cc3)ccc12', 'Amine oxidase [flavin-containing] A (Homo sapiens)', '0.05 µM'),
  ('Cc1c(Cl)c(=O)oc2cc(OCc3ccccc3)ccc12', 'Amine oxidase [flavin-containing] A (Homo sapiens)', '2.13 µM'),
  ('Cc1c(Cl)c(=O)oc2cc(OCCN3CCN(Cc4ccc(Br)cc4)CC3)ccc12', 'Amine oxidase [flavin-containing] A (Homo sapiens)', '> 10 µM');

* * *

Listed here are compounds together with their documented pIC50.
# TESTED TARGET: UniProtKB P81908
# Sequence (P81908 whole entry): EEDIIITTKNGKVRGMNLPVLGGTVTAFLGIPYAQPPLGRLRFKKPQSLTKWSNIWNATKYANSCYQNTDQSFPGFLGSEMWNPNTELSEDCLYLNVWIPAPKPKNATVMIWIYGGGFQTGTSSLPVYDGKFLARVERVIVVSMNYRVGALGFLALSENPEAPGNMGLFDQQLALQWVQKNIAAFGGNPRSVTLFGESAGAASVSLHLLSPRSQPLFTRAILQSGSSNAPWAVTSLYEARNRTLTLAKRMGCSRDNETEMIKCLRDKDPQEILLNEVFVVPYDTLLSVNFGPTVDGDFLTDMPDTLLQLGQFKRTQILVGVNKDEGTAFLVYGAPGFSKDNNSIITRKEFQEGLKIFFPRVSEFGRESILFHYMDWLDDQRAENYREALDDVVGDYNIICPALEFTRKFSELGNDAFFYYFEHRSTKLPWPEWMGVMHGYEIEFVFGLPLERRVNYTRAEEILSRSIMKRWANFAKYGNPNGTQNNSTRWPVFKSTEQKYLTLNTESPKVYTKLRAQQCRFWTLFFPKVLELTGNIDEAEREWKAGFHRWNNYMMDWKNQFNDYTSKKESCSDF
pIC50: −log10 of the molar value.
OUTCOME MEASURE: pIC50

INSERT INTO measurements (mol_smiles, cmp, reported_value) VALUES
  ('Cc1c(C#N)c(=O)oc2cc(OCc3ccc(F)cc3)ccc12', '<', 4.00),
  ('O=c1ccc2ccc(OCc3ccc(Br)cc3)cc2o1', '<', 4.00),
  ('Cc1c(C#N)c(=O)oc2cc(OCCN3CCN(Cc4ccc(Br)cc4)CC3)ccc12', '=', 4.88),
  ('Cc1c(Cl)c(=O)oc2cc(OCc3ccc(Br)cc3)ccc12', '<', 4.00),
  ('Cc1c(C#N)c(=O)oc2cc(OCc3ccc(Br)cc3)ccc12', '<', 4.00),
  ('O=c1cc(C(F)(F)F)c2ccc(OCCN3CCC(Cc4ccccc4)CC3)cc2o1', '<', 4.00),
  ('Cc1c(C#N)c(=O)oc2cc(OCc3ccc(Cl)cc3)ccc12', '<', 4.00),
  ('Cc1cc(=O)oc2cc(OCCN3CCC(Cc4ccccc4)CC3)ccc12', '=', 5.28),
  ('O=c1cc(C(F)(F)F)c2ccc(OCCN3CCN(Cc4ccc(Br)cc4)CC3)cc2o1', '<', 4.00),
  ('Cc1c(Cl)c(=O)oc2cc(OCc3ccccc3)ccc12', '=', 6.02),
  ('Cc1c(C#N)c(=O)oc2cc(OCc3ccccc3Br)ccc12', '<', 4.00),
  ('Cc1c(C#N)c(=O)oc2cc(OCCN3CCC(Cc4ccccc4)CC3)ccc12', '=', 5.23),
  ('Cc1c(C#N)c(=O)oc2cc(OCc3ccc(Br)cc3Br)ccc12', '<', 4.00),
  ('Cc1cc(=O)oc2cc(OCc3ccc(Br)cc3)ccc12', '<', 4.00),
  ('O=c1ccc2ccc(OCCN3CCC(Cc4ccccc4)CC3)cc2o1', '=', 4.69),
  ('O=c1ccc2ccc(OCCN3CCN(Cc4ccc(Br)cc4)CC3)cc2o1', '=', 4.30),
  ('O=c1cc(C(F)(F)F)c2ccc(OCc3ccc(Br)cc3)cc2o1', '<', 4.00),
  ('Cc1c(Cl)c(=O)oc2cc(OCCN3CCN(Cc4ccc(Br)cc4)CC3)ccc12', '=', 5.51),
  ('Cc1c(Cl)c(=O)oc2cc(OCCN3CCC(Cc4ccccc4)CC3)ccc12', '=', 5.90),
  ('Cc1c(C#N)c(=O)oc2cc(OCc3ccccc3)ccc12', '=', 4.66),
  ('Cc1cc(=O)oc2cc(OCCN3CCN(Cc4ccc(Br)cc4)CC3)ccc12', '=', 5.01);
